- stated_conditions: 298.15 K; 101.33 kPa; Liquid; dual vibrating plate viscometer, AandD Co. Ltd Model SV-10
Please enter Yes where viscosity is greater than or equal to 20 mPa·s, and No where it is lower.

Determine whether this molecule has viscosity no lower than 20 mPa·s: CC[NH2+]CC.O=S(=O)([O-])O [diethylammonium hydrogen sulfate] Yes

Now try CN1CCCC1=O [N-methylpyrrolidone] . No

Now try CC[NH+](CC)CC.O=S(=O)([O-])O [triethylammonium hydrogen sulfate] . Yes

Now try CC(=O)O.CCN(CC)CC [triethylammonium acetate] . Yes

Now try CC(=O)[O-].CC[NH2+]CC [diethylammonium acetate] . No

The reported measurements were obtained from the NIST ThermoML archive (doi:10.1016/j.jct.2012.03.034).
